METHOD_DESCRIPTION: Quantitative High-Throughput drug screen in 47 multiple myeloma cell lines against the NCATS MIPE library collection: Delta47_JCRB cell viability assay (AID 1918925; further: nearly all actives have a fitted effect of over 45% in size)
TEST_SETTINGS: Delta47 myeloma viability, CellTiter-Glo ATP, 48 h; series mostly up to 45.8 µM
Inconclusive results are not listed. Active and inactive are the calls of the source. The call rests on the fitted dose curve; in most records, active means well fitted cell-killing curve with a large enough effect; inconclusive means small, poorly fitted or top-dose-only effect, or effect the other way; inactive means no such curve, though single readings can be large or run the other way. Peptide text beside a SMILES is read from it.
Labels: Yes for active, No for inactive

COMPOUND | GROUP_LABEL
c1ccc2[nH]c(-c3cscn3)nc2c1 | No
NCCCCNCCCN | Yes
COC(=O)[C@H](Cc1ccccc1)NC(=O)[C@@H](N)CC(=O)O (H-Asp-Phe-OMe) | No
CCC(C)(Oc1ccc(C2(c3ccc(OC(C)(CC)C(=O)O)cc3)CCCCC2)cc1)C(=O)O (centres undefined) | No
O=C(O)CCNC(=O)c1ccc(N=Nc2ccc(O)c(C(=O)O)c2)cc1 | No
COC1=C(OC)C(=O)C(CCCCCCCCCCO)=C(C)C1=O | Yes
C=CCc1cc(OC)c(O)c(C(=O)NCCO)c1 | No
Nc1nc(N)c(N=O)c(OCC2CCCCC2)n1 | Yes
Cc1ccc(S(=O)(=O)NC(=O)NN2CC3CCCC3C2)cc1 (centres undefined) | Yes
Cc1cc2cc3c(C)cc(=O)oc3c(C)c2o1 | Yes
CCc1nc(N)nc(N)c1-c1ccc(Cl)cc1 | No
O=C(O)c1cccc(-c2noc(-c3ccccc3F)n2)c1 | No
CCCOc1ccc2nc(NC(=O)OC)[nH]c2c1 | Yes
O=C(O)c1cccnc1Nc1cccc(C(F)(F)F)c1 | No
CCCCCCCCOc1ccccc1C(=O)Nc1ccc(C(=O)OCC[N+](C)(CC)CC)cc1 | Yes
CC(C)[N+]1(C)[C@@H]2CC[C@H]1CC(OC(=O)C(CO)c1ccccc1)C2 (some centres undefined) | No
Nc1cccc2c1CN(C1CCC(=O)NC1=O)C2=O (centres undefined) | No
NS(=O)(=O)c1cc(C(=O)O)c(NCc2ccco2)cc1Cl | No
Oc1ccc2ccccc2c1SSc1c(O)ccc2ccccc12 | Yes
CCN(CC)CCOc1ccc(Nc2ncc3cc(-c4c(Cl)cccc4Cl)c(=O)n(C)c3n2)cc1 | Yes
COc1cc2c(N3CCN(C(=O)Nc4ccc(OC(C)C)cc4)CC3)ncnc2cc1OCCCN1CCCCC1 | Yes
COC(=O)C1=C(C)NC(C)=C(C(=O)OC(C)C)C1c1cccc2nonc12 (centres undefined) | Yes
Nc1ccc(S(N)(=O)=O)cc1 | No
CCN(CC)CCOc1ccc(Cc2ccccc2)cc1 | No
